experiment: Luminescence activity assay of purified Gaussia luciferase mutants on coelenterazine derivative ZS2; type: biochemical; design: key: ratio of mutant luminescence intensity to wild-type Gaussia luciferase; conditions: Substrate ZS2 (Table 16)
The molecules listed here are annotated with their Activity of mutant relative to wild-type Gaussia luciferase without the signal peptide.
Give the value as a plain number.

{"Molecule": "Q152K Q163T S170N G174N K178S A182Y G183A: Gaussia luciferase mutant (protein, SIGNAL (1)..(17), Gaussia luciferase mutant) MGVKVLFALICIAVAEAKPTENNEDFNIVAVASNFATTDLDADRGKLPGKKLPLEVLKEMEANARKAGCTRGCLICLSHIKCTPKMKKFIPGRCHTYEGDKESAQGGIGEAIVDIPEIPGFKDLEPMEQFIAQVDLCVDCTTGCLKGLANVKCSDLLKKWLPTRCATFANKIQNQVDSIKGYAGD", "Measured number": 0.026}

Endpoint output: Activity of mutant relative to wild-type Gaussia luciferase without the signal peptide of F26R V29D A30G A32D A36I T37A L40R: Gaussia luciferase mutant (protein, SIGNAL (1)..(17), Gaussia luciferase mutant) MGVKVLFALICIAVAEAKPTENNEDRNIDGVDSNFIATDRDADRGKLPGKKLPLEVLKEMEANARKAGCTRGCLICLSHIKCTPKMKKFIPGRCHTYEGDKESAQGGIGEAIVDIPEIPGFKDLEPMEQFIAQVDLCVDCTTGCLKGLANVQCSDLLKKWLPQRCATFASKIQGQVDKIKGAGGD . Value? 2.460
